Molecular target: MAPK1 (Homo sapiens)
Construct: made in house
Sequence (P28482 whole entry, species assumed): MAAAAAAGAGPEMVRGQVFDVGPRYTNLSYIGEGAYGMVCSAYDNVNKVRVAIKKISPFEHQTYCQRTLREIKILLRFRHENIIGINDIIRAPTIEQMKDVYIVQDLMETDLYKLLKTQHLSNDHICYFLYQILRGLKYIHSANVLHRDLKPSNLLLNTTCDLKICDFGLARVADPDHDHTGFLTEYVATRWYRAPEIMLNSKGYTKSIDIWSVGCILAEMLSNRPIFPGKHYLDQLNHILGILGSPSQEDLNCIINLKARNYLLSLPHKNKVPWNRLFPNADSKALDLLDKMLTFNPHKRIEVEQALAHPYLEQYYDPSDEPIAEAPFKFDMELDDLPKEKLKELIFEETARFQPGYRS
Experiment: Liability panel screening by DSF: MAPK1
Type: binding
Conditions: DSF, 20 µM, n=2; read-out: Mean ΔTM MAPK1
RECORDED_ENDPOINT: ΔTm at 20 µM
A bare number is not enough; add the unit after it.

// solved cases for ΔTm at 20 µM follow
>>> measurement("C[C@@H]1Cc2c([nH]c3ccccc23)[C@@H](c2c(F)cc(/C=C/C(=O)O)cc2F)N1CC(C)(C)F")
"0.55 °C"
>>> measurement("CN(C)CCOc1ccc(/C(=C(/CCCO)c2ccccc2)c2ccc(O)cc2)cc1")
"0.14 °C"
>>> measurement("N#CC(Cc1ccc(O)cc1)c1ccc(O)cc1 (stereo not shown)")
"0.0328 °C"

Challenge: Any idea what ΔTm at 20 µM came out for `C[C@]12CCC(=O)C=C1CC[C@@H]1[C@@H]2[C@@H](O)C[C@]2(C=O)[C@@H](C(=O)CO)CC[C@@H]12` on MAPK1 (Homo sapiens)?
Response given: 0.17 °C

---

Test system: NF-κB activity in HEK293 NF-κB reporter cells
Test: NF-kB activity assay (GFP reporter, ionomycin/PMA)
Assay type: cell-based
Conditions: 1 µM, 12 h, n=3
Procedure: Fig. 6 Application of the NR3 CG set. After 24 h, cells were incubated with the test compounds solubilized with 0.1% DMSO in the same medium without puromycin. After 4 h incubation, ionomycin (100 ng/mL) and phorbol-12-myristat-13-acetate (PMA, 10 ng/mL) was added, and the cells were imaged for confluence and GFP expression every 90 min. over 24 h using a Tecan SPARK Cyto (Tecan). The number of GFP expressing cells was normalized to confluence in each sample. […]
RECORDED_ENDPOINT: Mean NFκB response

// solved cases for Mean NFκB response follow
>>> measurement("C[C@]1(O)CC[C@H]2[C@@H]3CCC4=CC(=O)CCC4=C3C=C[C@@]21C")
"21183.67 GFP+-cells/confluence ∙ 1000"
>>> measurement("N#CC(Cc1ccc(O)cc1)c1ccc(O)cc1 (stereo not shown)")
"22519.63 GFP+-cells/confluence ∙ 1000"
>>> measurement("C[C@]12CCC(=O)C=C1CC[C@@H]1[C@@H]2[C@@H](O)C[C@]2(C=O)[C@@H](C(=O)CO)CC[C@@H]12")
"17161.43 GFP+-cells/confluence ∙ 1000"
>>> measurement("C[C@@H]1Cc2c([nH]c3ccccc23)[C@@H](c2c(F)cc(/C=C/C(=O)O)cc2F)N1CC(C)(C)F")
"15818.86 GFP+-cells/confluence ∙ 1000"
>>> measurement("Oc1ccc(-c2c(-c3ccccc3)nn3c(C(F)(F)F)cc(C(F)(F)F)nc23)cc1")
"22714.33 GFP+-cells/confluence ∙ 1000"

# context switch: different molecule, same Mean NFκB response
Challenge: # get_value(readout='Mean NFκB response', item= `COc1cc(/C=C(\C#N)C(=O)Nc2nnc(C(F)(F)F)s2)ccc1OCc1ccc(C(F)(F)F)cc1C(F)(F)F` )
Response given: 20416.67 GFP+-cells/confluence ∙ 1000

---

Test system: NF-κB activity in HEK293 NF-κB reporter cells
Experiment: NF-kB activity assay (GFP reporter, ionomycin/PMA)
Type: cell-based
Conditions: 3 µM, 4,5 h, n=3
Reported Mean NFκB response values are given for each entry in this list.

>>> measurement("CC/C(=C(\\c1ccc(O)cc1)c1ccc(OCCN(C)C)cc1)c1ccccc1 [(Z)-4-Hydroxytamoxifen]")
"3334.14 GFP+-cells/confluence ∙ 1000"
>>> measurement("CC(C)c1ccc(/C=N/NC(=O)c2ccc(O)cc2)cc1")
"4011.96 GFP+-cells/confluence ∙ 1000"
>>> measurement("CC#C[C@]1(O)CC[C@H]2[C@@H]3CCC4=CC(=O)CCC4=C3[C@@H](c3ccc(N(C)C)cc3)C[C@@]21C")
"4100.00 GFP+-cells/confluence ∙ 1000"

Challenge: # get_value(readout='Mean NFκB response', item= `CC/C(=C(/CC)c1ccc(O)cc1)c1ccc(O)cc1` )
Response given: 2942.05 GFP+-cells/confluence ∙ 1000

Challenge: Next compound: `CCN(CC)c1ccc(/C=N/NC(=O)c2ccc(O)cc2)cc1`
Response given: 4226.03 GFP+-cells/confluence ∙ 1000

---

Target: TRIM24 (Homo sapiens, UniProt O15164)
Construct: This panel comprised ten highly ligandable kinases and bromodomains; made in house
Sequence (O15164 899-1004 limits assumed, species assumed): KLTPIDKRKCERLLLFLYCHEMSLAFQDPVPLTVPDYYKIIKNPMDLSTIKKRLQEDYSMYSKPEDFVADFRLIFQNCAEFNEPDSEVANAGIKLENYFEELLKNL
Assay: Liability panel screening by DSF: TRIM24
Format: binding
Conditions: read-out: Mean ΔTM TRIM24
// rule not met strictly below 0.9 °C in ΔTm at 20 µM; rule met otherwise

These recorded examples may help you get a feel for the data.
>>> answer_label("O=S(=O)(Cc1ccccc1)Nc1ccc(-c2ccc3c(cnn3-c3ccc(F)cc3)c2)c(C(F)(F)F)c1")
"rule met"
>>> answer_label("C[C@]1(O)CC[C@H]2[C@@H]3CCC4=CC(=O)CCC4=C3C=C[C@@]21C")
"rule not met"
>>> answer_label("CC[C@@H]1Cc2cc(O)ccc2C2=C1c1ccc(O)cc1C[C@H]2CC [(R,R)-THC]")
"rule met"

Challenge: Record `CCCc1c(-c2ccc(O)cc2)nn(-c2ccc(O)cc2)c1-c1ccc(O)cc1` ; criterion: ΔTm at 20 µM no lower than 0.9 °C. Met?
Response given: rule not met

Challenge: Next compound: `CC(=O)Nc1ccc(OC[C@](C)(O)C(=O)Nc2ccc([N+](=O)[O-])c(C(F)(F)F)c2)cc1`
Response given: rule not met

---

Target: ABL1 (Homo sapiens)
Construct: made in house
Assay: Liability panel screening by DSF: ABL1
Format: binding
Settings: DSF, 20 µM, n=2; read-out: Mean ΔTM ABL1
// no (0) strictly below 0.02 °C in ΔTm at 20 µM; yes (1) otherwise

These recorded examples may help you get a feel for the data.
>>> answer_label("CC(C)(c1ccc(O)cc1)c1ccc(O)cc1")
"yes (1)"
>>> answer_label("CC#C[C@]1(O)CC[C@H]2[C@@H]3CCC4=CC(=O)CCC4=C3[C@@H](c3ccc(N(C)C)cc3)C[C@@]21C")
"yes (1)"
>>> answer_label("CCCC1O[C@@H]2C[C@H]3[C@@H]4CCC5=CC(=O)C=C[C@]5(C)[C@H]4[C@@H](O)C[C@]3(C)[C@]2(C(=O)CO)O1 (stereo partly shown) [Budesonide]")
"yes (1)"

Challenge: Record `COc1cc(/C=C(\C#N)C(=O)Nc2nnc(C(F)(F)F)s2)ccc1OCc1ccc(C(F)(F)F)cc1C(F)(F)F` ; criterion: ΔTm at 20 µM no lower than 0.02 °C. Met?
Response given: yes (1)

Challenge: Next molecule: `C[C@]12CCC(=O)C=C1CC[C@@H]1[C@@H]2[C@@H](O)C[C@]2(C=O)[C@@H](C(=O)CO)CC[C@@H]12`
Response given: no (0)

Challenge: Next molecule: `N#Cc1ccc(N2N=C3c4ccc(C(=O)O)cc4CC[C@@H]3[C@@H]2C2CCCC2)cc1Cl`
Response given: no (0)

---

Reported ΔTm at 20 µM values are given for each entry in this list.
Biological target: CSNK1D (Homo sapiens)
Construct: made in house
Sequence (P48730 whole entry, species assumed): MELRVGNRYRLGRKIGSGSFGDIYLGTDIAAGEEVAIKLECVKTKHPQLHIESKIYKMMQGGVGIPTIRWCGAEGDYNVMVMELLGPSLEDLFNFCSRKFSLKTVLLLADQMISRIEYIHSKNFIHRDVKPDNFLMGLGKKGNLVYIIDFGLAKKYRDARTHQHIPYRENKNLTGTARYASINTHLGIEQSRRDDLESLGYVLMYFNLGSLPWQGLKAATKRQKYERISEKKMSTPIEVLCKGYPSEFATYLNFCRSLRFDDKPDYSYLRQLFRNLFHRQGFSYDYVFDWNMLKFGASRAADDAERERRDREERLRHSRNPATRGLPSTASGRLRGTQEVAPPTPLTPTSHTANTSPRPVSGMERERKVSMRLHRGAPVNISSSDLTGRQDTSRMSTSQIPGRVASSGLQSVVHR
Experiment: Liability panel screening by DSF: CSNK1D
Assay type: binding
Details: read-out: Mean ΔTM CSNK1D
Expressed in °C, but write only the number.

// solved cases for ΔTm at 20 µM follow
>>> measurement("O=S(=O)(Cc1ccccc1)Nc1ccc(-c2ccc3c(cnn3-c3ccc(F)cc3)c2)c(C(F)(F)F)c1 [GSK9027]")
-1.92
>>> measurement("CCCc1c(-c2ccc(O)cc2)nn(-c2ccc(O)cc2)c1-c1ccc(O)cc1 [Propylpyrazoletriol]")
1.72
>>> measurement("CC(=O)Nc1ccc(OC[C@](C)(O)C(=O)Nc2ccc([N+](=O)[O-])c(C(F)(F)F)c2)cc1 [Andarine]")
0.23
>>> measurement("C[C@]1(O)CC[C@H]2[C@@H]3CCC4=CC(=O)CCC4=C3C=C[C@@]21C [Methyltrienolone]")
-0.05

# context switch: different compound, same ΔTm at 20 µM
Challenge: # get_value(readout='ΔTm at 20 µM', item= CC[C@@H]1Cc2cc(O)ccc2C2=C1c1ccc(O)cc1C[C@H]2CC [(R,R)-THC] )
Response given: -0.65

---

Target: ABL1 (Homo sapiens, UniProt P00519)
Construct: made in house
Sequence (P00519 whole entry, species assumed): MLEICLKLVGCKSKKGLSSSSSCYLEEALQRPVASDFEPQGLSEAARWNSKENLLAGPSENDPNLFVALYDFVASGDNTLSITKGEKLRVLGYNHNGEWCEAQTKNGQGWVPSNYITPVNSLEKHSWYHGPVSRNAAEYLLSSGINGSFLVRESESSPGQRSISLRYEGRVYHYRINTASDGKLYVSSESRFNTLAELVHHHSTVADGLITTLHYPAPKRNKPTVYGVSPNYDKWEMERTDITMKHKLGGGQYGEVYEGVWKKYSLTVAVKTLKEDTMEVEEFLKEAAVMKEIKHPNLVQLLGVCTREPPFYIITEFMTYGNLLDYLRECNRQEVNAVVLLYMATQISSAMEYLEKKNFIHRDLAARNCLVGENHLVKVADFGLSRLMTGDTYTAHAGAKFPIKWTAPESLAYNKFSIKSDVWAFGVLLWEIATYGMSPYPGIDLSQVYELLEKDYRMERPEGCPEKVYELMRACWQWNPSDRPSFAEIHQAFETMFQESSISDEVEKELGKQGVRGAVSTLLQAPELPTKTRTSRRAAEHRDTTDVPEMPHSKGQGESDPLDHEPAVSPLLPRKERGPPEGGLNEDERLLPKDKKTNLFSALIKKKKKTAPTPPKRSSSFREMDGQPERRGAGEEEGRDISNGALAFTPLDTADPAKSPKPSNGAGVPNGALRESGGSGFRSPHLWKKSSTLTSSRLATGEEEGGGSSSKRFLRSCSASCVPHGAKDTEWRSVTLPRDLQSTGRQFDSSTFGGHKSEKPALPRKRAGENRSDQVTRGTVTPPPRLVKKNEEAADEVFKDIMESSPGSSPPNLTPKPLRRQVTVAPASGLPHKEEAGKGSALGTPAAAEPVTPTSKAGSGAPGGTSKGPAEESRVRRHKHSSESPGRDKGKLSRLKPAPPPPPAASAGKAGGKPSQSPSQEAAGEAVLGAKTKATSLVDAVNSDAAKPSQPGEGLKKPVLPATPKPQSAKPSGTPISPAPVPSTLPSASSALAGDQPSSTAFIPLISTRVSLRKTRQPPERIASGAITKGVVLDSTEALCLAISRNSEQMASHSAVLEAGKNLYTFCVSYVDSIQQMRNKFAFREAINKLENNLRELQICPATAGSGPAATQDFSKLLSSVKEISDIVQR
Assay: Liability panel screening by DSF: ABL1
Format: binding
Conditions: read-out: Mean ΔTM ABL1
Classify: 1 when ΔTm at 20 µM is strictly less than 2 °C; 0 when ΔTm at 20 µM is not.

>>> answer_label("O=S(=O)(Cc1ccccc1)Nc1ccc(-c2ccc3c(cnn3-c3ccc(F)cc3)c2)c(C(F)(F)F)c1 [GSK9027]")
1
>>> answer_label("CCCc1c(-c2ccc(O)cc2)nn(-c2ccc(O)cc2)c1-c1ccc(O)cc1 [Propylpyrazoletriol]")
1
>>> answer_label("CC[C@@H]1Cc2cc(O)ccc2C2=C1c1ccc(O)cc1C[C@H]2CC [(R,R)-THC]")
0

Challenge: Problem: For the compound CC(=O)Nc1ccc(OC[C@](C)(O)C(=O)Nc2ccc([N+](=O)[O-])c(C(F)(F)F)c2)cc1 [Andarine] , is ΔTm at 20 µM under 2 °C?
Response given: 1

Challenge: Next compound: C[C@]1(O)CC[C@H]2[C@@H]3CCC4=CC(=O)CCC4=C3C=C[C@@]21C [Methyltrienolone]
Response given: 1
